Would you mind telling me the reported log10 of IC50 of each entry?
molecular target: Beta Secretase enzyme (BACE) (Homo sapiens); test: In vitro enzymatic BACE FRET (fluorescence resonance energy transfer) assay; type: biochemical; conditions: average IC50, enzyme assay; read-out: BACE 1 FRET assay
Sequence (P56817 46-501, species assumed): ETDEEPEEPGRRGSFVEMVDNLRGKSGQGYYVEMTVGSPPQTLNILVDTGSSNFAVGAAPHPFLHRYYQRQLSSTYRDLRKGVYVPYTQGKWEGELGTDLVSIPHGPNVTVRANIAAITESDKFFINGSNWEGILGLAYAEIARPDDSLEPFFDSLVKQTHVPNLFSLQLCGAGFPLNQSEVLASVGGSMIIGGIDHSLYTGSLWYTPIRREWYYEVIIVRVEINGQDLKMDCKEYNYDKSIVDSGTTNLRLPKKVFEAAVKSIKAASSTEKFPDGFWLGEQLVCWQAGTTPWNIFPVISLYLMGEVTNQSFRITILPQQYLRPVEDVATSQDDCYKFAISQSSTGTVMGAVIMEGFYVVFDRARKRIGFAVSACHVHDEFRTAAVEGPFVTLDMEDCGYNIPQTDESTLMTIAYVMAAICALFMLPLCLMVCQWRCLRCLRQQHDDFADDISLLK
Values reflect log10 of reported IC50 (nM).

Prompt line: # query: log10 of IC50 of entry CC(C)(C)/C=C/c1cc2c(cn1)Oc1ccc(-c3cncc(F)c3)cc1[C@@]21COC(N)=N1
Response line: -0.10

Prompt line: What do you have for NC1=N[C@]2(CO1)c1cc(-c3cccnc3F)ccc1Oc1c2cc(C#Cc2cccnc2)nc1F ?
Response line: 3.05

Prompt line: Also, NC1=N[C@@]2(CO1)c1cc(-c3cncc(F)c3)ccc1Oc1c(F)cc([C@H]3CCCOC3)cc12 please.
Response line: 0.38

Prompt line: // next record Cc1cc(-c2ccc3c(c2)[C@@]2(COC(N)=N2)c2cc(C4=CCOCC4)ncc2O3)ccc1F
Response line: 0.53

Prompt line: # repeat for NC1=N[C@@]2(CO1)c1cc(-c3cccnc3F)ccc1Oc1ncc(-c3cccnc3F)cc12
Response line: 0.30

Prompt line: Repeat with N#Cc1cccc(-c2ccc3c(c2)[C@@]2(COC(N)=N2)c2cc(N4CCOCC4)nc(F)c2O3)c1
Response line: -0.52

Prompt line: Item: CC1(C#Cc2ccc3c(c2)[C@@]2(COC(N)=N2)c2cc(C4=CCOCC4)cnc2O3)COC1
Response line: 0.77
